biological target: USP20 (Homo sapiens, UniProt Q9Y2K6); assay: biochemical
Sequence (Q9Y2K6 whole entry): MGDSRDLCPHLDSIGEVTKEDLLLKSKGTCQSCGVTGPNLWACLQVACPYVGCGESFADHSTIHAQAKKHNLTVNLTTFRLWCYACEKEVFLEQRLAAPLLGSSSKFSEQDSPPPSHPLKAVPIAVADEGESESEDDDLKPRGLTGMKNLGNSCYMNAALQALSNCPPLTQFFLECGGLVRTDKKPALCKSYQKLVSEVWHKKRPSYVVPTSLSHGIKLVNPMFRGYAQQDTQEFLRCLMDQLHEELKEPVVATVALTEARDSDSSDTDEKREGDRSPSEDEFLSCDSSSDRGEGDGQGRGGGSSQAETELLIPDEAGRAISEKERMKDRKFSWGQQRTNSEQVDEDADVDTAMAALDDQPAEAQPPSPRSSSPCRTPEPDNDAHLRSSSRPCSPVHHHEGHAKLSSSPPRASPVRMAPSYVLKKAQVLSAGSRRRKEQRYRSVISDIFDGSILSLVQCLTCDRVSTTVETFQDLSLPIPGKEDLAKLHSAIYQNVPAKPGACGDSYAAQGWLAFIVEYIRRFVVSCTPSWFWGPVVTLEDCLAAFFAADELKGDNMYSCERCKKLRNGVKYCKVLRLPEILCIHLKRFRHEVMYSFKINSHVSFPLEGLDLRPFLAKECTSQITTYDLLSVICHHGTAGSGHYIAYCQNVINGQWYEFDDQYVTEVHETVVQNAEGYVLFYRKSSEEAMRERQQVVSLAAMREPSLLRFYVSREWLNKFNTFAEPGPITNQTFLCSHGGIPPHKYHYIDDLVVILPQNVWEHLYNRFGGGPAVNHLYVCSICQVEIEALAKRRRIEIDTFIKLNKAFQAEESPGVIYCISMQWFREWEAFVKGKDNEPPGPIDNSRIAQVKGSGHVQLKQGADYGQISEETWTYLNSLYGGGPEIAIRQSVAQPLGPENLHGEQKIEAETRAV

| compound | IC50 |
| --- | --- |
| C[C@H](c1cccc2ccccc12)N1CCC(C(=O)NCc2ccc3c(c2)OCO3)CC1 [15g, reference compound] | > 100 µM |
